test system: L1210 leukemia ip in BDF1 mice, survival T/C; test: NCI In Vivo Anticancer Drug Screen. Data for tumor model L1210 Leukemia (intraperitoneal) in B6D2F1 (BDF1) mice; conditions: endpoint: mean survival time; dose: 25.0 mg/kg/injection; schedule: Q01DX009 (ip); vehicle: saline; higher = longer survival
Toxic doses and inconclusive results are not listed.
Measured Quantity: T/C

The examples below pair each entry with its known result.
# Compound, Study Target, Measured Quantity, Value Observed
records = [
    ("CCCOC(C(=O)OC1CCN(C)CC1)(c1ccccc1)c1ccccc1", "L1210 leukemia ip in BDF1 mice, survival T/C", "T/C", "102 % of control"),
    ("CCCC(=O)Nc1ncnc2c1ncn2C1OC2COP(=O)(O)OC2C1OC(=O)CCC (configuration not stated)", "L1210 leukemia ip in BDF1 mice, survival T/C", "T/C", "104 % of control"),
    ("C[N+](C)(C)CCCC1C2CCC(C2)C1C[N+](C)(C)C (configuration not stated)", "L1210 leukemia ip in BDF1 mice, survival T/C", "T/C", "104 % of control"),
]

[ask] Please look up its T/C: CC(=O)NCC[N+](C)(C)C
[reply] 100 % of control

[ask] Please look up its T/C: CC(N)COCc1ccccc1 (configuration not stated)
[reply] 97 % of control

[ask] Please look up its T/C: NCCN1CCc2ccccc2C1
[reply] 102 % of control

[ask] Please look up its T/C: COC(=O)/C=C\C=C(\CBr)C(=O)OC
[reply] 110 % of control
